Assay: Olaparib sustained in cultured TNBC cells, LC-MS/MS (half-life)
Type: in vitro ADME, human
Details: human, HCC-1937 TNBC cells, HCC-1937, FBI-1; read-out: half life values of olaparib (t1/2) (converted)
Observable: half-life at 1 μmol/L (h)
Provide the reading as a plain figure in h.

input: Provide one value: measured half-life at 1 μmol/L of "O=C(c1cc(Cc2n[nH]c(=O)c3ccccc23)ccc1F)N1CCN(C(=O)C2CC2)CC1"
output: 9.44

###

Test: Olaparib sustained in cultured TNBC cells, LC-MS/MS (half-life)
Type: in vitro ADME, human
Settings: human, TNBC cells PDC No. 7, PDC No. 7, siFBI-1; read-out: Half life values of olaparib (t1/2) In cultured cells (converted)
Observable: half-life at 1 μmol/L (h)
Provide the reading as a plain figure in h.

input: Provide one value: measured half-life at 1 μmol/L of O=C(c1cc(Cc2n[nH]c(=O)c3ccccc23)ccc1F)N1CCN(C(=O)C2CC2)CC1 [olaparib]
output: 55.5

###

Test system: PDC No. 3
Experiment: Cell-survival SRB assay
Assay type: cell-based
Details: Homo sapiens, 48 h, PDC No. 3, siFBI-1, 48 h; read-out: IC50 values of olparib
Observable: IC50
Answers without a unit are incomplete; give the number and then its unit.

input: Give the observed IC50 of O=C(c1cc(Cc2n[nH]c(=O)c3ccccc23)ccc1F)N1CCN(C(=O)C2CC2)CC1 [olaparib] for PDC No. 3.
output: 0.1 µM

###

Assay: Olaparib sustained in cultured TNBC cells, LC-MS/MS (half-life)
Type: in vitro ADME, human
Conditions: human, HCC-1937 TNBC cells, HCC-1937, miR-30c; read-out: half life values of olaparib (t1/2) (converted)
Experimental: TNBC cells transfected with plasmids were used for the pharmacokinetic experiments to examine the amount of olaparib sustained in the cells. For the cell-based experiments, cells were treated with 1 μmol/L concentration of olaparib for 12 h[33]. Then, cells were harvested at indicated time-points. […] The sustaining rates of olaparib were calculated as (the amount of olaparib at each time)/(the amount of olaparib at 0-time) × 100%. […]
Observable: half-life at 1 μmol/L (h)
Provide the reading as a plain figure in h.

input: Provide one value: measured half-life at 1 μmol/L of O=C(c1cc(Cc2n[nH]c(=O)c3ccccc23)ccc1F)N1CCN(C(=O)C2CC2)CC1 [olaparib]
output: 68.3

###

Test: Olaparib sustained in subcutaneous TNBC tumors after intratumoral injection, LC-MS/MS (half-life)
Assay type: in vivo, nude mice
Conditions: nude, mouse, subcutaneous tumor tissue, other: injected into the subcutaneous tumors (intratumoral), PDC No. 9, FBI-1; read-out: Half life values of olaparib (t1/2) In subcutaneous tumors (converted)
Observable: half-life (h)
Provide the reading as a plain figure in h.

input: Provide one value: measured half-life of "O=C(c1cc(Cc2n[nH]c(=O)c3ccccc23)ccc1F)N1CCN(C(=O)C2CC2)CC1"
output: 22.6

###

Assay: Olaparib sustained in subcutaneous TNBC tumors after intratumoral injection, LC-MS/MS (half-life)
Format: in vivo, nude mice
Details: nude, mouse, subcutaneous tumor tissue, other: injected into the subcutaneous tumors (intratumoral), PDC No. 7, siFBI-1; read-out: Half life values of olaparib (t1/2) In subcutaneous tumors (converted)
Observable: half-life
Answers without a unit are incomplete; give the number and then its unit.

input: Provide one value: measured half-life of "O=C(c1cc(Cc2n[nH]c(=O)c3ccccc23)ccc1F)N1CCN(C(=O)C2CC2)CC1"
output: 58.2 h

###

Experiment: Olaparib sustained in cultured TNBC cells, LC-MS/MS (half-life)
Type: in vitro ADME, human
Details: human, MDA-MB-436 TNBC cells, MDA-MB-436, miR-30c + PXR^Mut; read-out: half life values of olaparib (t1/2) (converted)
Description: TNBC cells transfected with plasmids were used for the pharmacokinetic experiments to examine the amount of olaparib sustained in the cells. For the cell-based experiments, cells were treated with 1 μmol/L concentration of olaparib for 12 h[33]. Then, cells were harvested at indicated time-points. […] The sustaining rates of olaparib were calculated as (the amount of olaparib at each time)/(the amount of olaparib at 0-time) × 100%. […]
Observable: half-life at 1 μmol/L (h)
Provide the reading as a plain figure in h.

input: Provide one value: measured half-life at 1 μmol/L of O=C(c1cc(Cc2n[nH]c(=O)c3ccccc23)ccc1F)N1CCN(C(=O)C2CC2)CC1 [olaparib]
output: 11.2

###

Assay: Olaparib sustained in cultured TNBC cells, LC-MS/MS (half-life)
Type: in vitro ADME, human
Settings: human, HCC-1937 TNBC cells, HCC-1937, miR-30c + PXR^Mut; read-out: half life values of olaparib (t1/2) (converted)
Observable: half-life at 1 μmol/L (h)
Provide the reading as a plain figure in h.

input: Provide one value: measured half-life at 1 μmol/L of "O=C(c1cc(Cc2n[nH]c(=O)c3ccccc23)ccc1F)N1CCN(C(=O)C2CC2)CC1"
output: 8.55

###

Experiment: Olaparib sustained in cultured TNBC cells, LC-MS/MS (half-life)
Type: in vitro ADME, human
Settings: human, TNBC cells PDC No. 6, PDC No. 6, Control; read-out: Half life values of olaparib (t1/2) In cultured cells (converted)
Observable: half-life at 1 μmol/L (h)
Provide the reading as a plain figure in h.

input: Provide one value: measured half-life at 1 μmol/L of O=C(c1cc(Cc2n[nH]c(=O)c3ccccc23)ccc1F)N1CCN(C(=O)C2CC2)CC1 [olaparib]
output: 19.4

###

Assay: Olaparib sustained in cultured TNBC cells, LC-MS/MS (half-life)
Format: in vitro ADME, human
Details: human, TNBC cells PDC No. 9, PDC No. 9, FBI-1 (Table 4); read-out: Half-life values of olparib (t1/2) (converted)
Observable: half-life at 1 μmol/L (h)
Provide the reading as a plain figure in h.

input: Provide one value: measured half-life at 1 μmol/L of O=C(c1cc(Cc2n[nH]c(=O)c3ccccc23)ccc1F)N1CCN(C(=O)C2CC2)CC1 [olaparib]
output: 14.9

###

Tested on: HCC-1937
Assay: Cell-survival SRB assay
Type: cell-based
Conditions: Homo sapiens, HCC1937, 48 h, HCC-1937, miR-30c, 48 h; read-out: The IC50 values of olaparib
Observable: IC50 (nM)
Provide the reading as a plain figure in nM.

input: Provide one value: measured IC50 of "O=C(c1cc(Cc2n[nH]c(=O)c3ccccc23)ccc1F)N1CCN(C(=O)C2CC2)CC1"
output: 100

###

Experiment: Olaparib sustained in cultured TNBC cells, LC-MS/MS (half-life)
Assay type: in vitro ADME, human
Conditions: human, TNBC cells PDC No. 3, PDC No. 3, Control (Table 3); read-out: Half life values of olaparib (t1/2) In cultured cells (converted)
Observable: half-life at 1 μmol/L (h)
Provide the reading as a plain figure in h.

input: Provide one value: measured half-life at 1 μmol/L of "O=C(c1cc(Cc2n[nH]c(=O)c3ccccc23)ccc1F)N1CCN(C(=O)C2CC2)CC1"
output: 25

###

Assay: Olaparib sustained in subcutaneous TNBC tumors after intratumoral injection, LC-MS/MS (half-life)
Format: in vivo, nude mice
Details: nude, mouse, subcutaneous tumor tissue, other: injected into the subcutaneous tumors (intratumoral), PDC No. 9, Control; read-out: Half life values of olaparib (t1/2) In subcutaneous tumors (converted)
Observable: half-life (min)
Provide the reading as a plain figure in min.

input: Provide one value: measured half-life of O=C(c1cc(Cc2n[nH]c(=O)c3ccccc23)ccc1F)N1CCN(C(=O)C2CC2)CC1 [olaparib]
output: 2160
